These entries and their values trace back to ChEMBL document CHEMBL1154417.

- assay protocol: Cytotoxicity against human MOLT4 cells
- Format: cell-based, MOLT-4
- measurement parameters: read-out: CCIC50
measurement kind: CC50

>>> result("Cc1nc(COc2ccc(C[C@H](NC(=O)O[C@H]3CO[C@H]4OCC[C@H]43)[C@H](O)CN(CC(C)C)S(=O)(=O)c3ccc4c(c3)OCO4)cc2)cs1")
"> 25 µM"

====

- assay protocol: Cytotoxicity against human U937 cells
- Type: cell-based, U-937
measurement kind: CC50

>>> result("Cc1nc(COc2ccc(C[C@H](NC(=O)O[C@H]3CO[C@H]4OCC[C@H]43)[C@H](O)CN(CC(C)C)S(=O)(=O)c3ccc4c(c3)OCO4)cc2)cs1")
"> 25 µM"
